Origin of measurements: ChEMBL document CHEMBL5550130

# IC50 values compiled below
# System: Plasmodium falciparum
# test description: Antiplasmodial activity against erythrocytic stage of chloroquine-sensitive Plasmodium falciparum 3D7 assessed as inhibition of parasite growth incubated for 3 days by HRP2-ELISA
# Format: functional, organism-based
# assay setup: 3D7, 72 h
Field format: number, assumed nM, no unit text.

Guide cases for IC50, answers given:
compound	test readout	observed result
COc1cc(NC(C)CCCNC(=O)NCCn2c3cc(OC)ccc3c3ccnc(C)c32)c2ncccc2c1 (configuration not stated)	IC50	702
COc1cc(NC(C)CCCNC(=O)NCCOc2ccc3[nH]c4c(C)nccc4c3c2)c2ncccc2c1 (configuration not stated)	IC50	10700
COc1cc(NC(C)CCCn2cc(-c3cc4c([nH]c5ccccc54)c(C)n3)nn2)c2ncccc2c1 (configuration not stated)	IC50	857
COc1cc(NC(C)CCCn2cc(COc3ccc4[nH]c5c(C)nccc5c4c3)nn2)c2ncccc2c1 (configuration not stated)	IC50	425

Inquiry: Consider the compound COc1cc(NC(C)CCCn2cc(-c3nccc4c3[nH]c3ccccc34)nn2)c2ncccc2c1 (configuration not stated) and give its recorded IC50.
Reply text: 2520

Inquiry: Give me measured IC50, please, for this compound: COc1cc(NC(C)CCCn2cc(Cn3c4cc(OC)ccc4c4ccnc(C)c43)nn2)c2ncccc2c1 (configuration not stated)
Reply text: 524

Inquiry: Report measured IC50; entry is COc1cc(NC(C)CCCn2cc(COc3ccc4[nH]c5c(C)nccc5c4c3)nn2)c2ncccc2c1-c1c(OC)cc(NC(C)CCCn2cc(COc3ccc4[nH]c5c(C)nccc5c4c3)nn2)c2ncccc12 (configuration not stated)
Reply text: 15.4
